ASSAY SYSTEM: T1, PUF4 RNA-binding domain (Saccharomyces cerevisiae, UniProt P25339 537-888)
T1 sequence: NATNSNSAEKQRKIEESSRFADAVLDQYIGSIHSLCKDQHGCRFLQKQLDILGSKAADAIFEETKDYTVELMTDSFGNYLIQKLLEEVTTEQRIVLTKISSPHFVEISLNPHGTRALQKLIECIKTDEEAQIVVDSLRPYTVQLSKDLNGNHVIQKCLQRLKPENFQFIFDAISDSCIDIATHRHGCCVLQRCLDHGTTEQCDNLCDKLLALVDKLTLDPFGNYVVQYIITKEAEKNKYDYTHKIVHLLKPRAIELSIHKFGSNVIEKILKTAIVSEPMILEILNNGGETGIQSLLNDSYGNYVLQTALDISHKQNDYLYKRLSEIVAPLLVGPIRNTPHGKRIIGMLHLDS
TEST SUMMARY: Mg; RNA-MaP; 20 mM Na-HEPES pH 7.4, 30 mM KOAc, 0.75 mM MgCl2, 0.1% Tween-20, 5% glycerol, 0.1 mg/mL BSA, 2 mM DTT; 25 C; 0.0125-409.6 nM protein
MEASUREMENT SETUP: tags: N-His6-TEV cleaved; C-SNAP kept, Cy3B-labelled; label: tethered on chip by stalled RNA polymerase
Decision: Kd beneath 400 nM gives TRUE; Kd meeting or exceeding 400 nM gives FALSE.

Challenge: hey, is Kd for Id_ii_S4_P3E.3_K3.2_C3.2_[C-2A]_[T-1C]_H3.2_A3.1_F3.1_T3.2_[T9C] (ssRNA) RNA: UUUGACAACUGAUCGUUCUUUCUACUAUAUAUACAUUCUUUCUCGAUCAGUUGUCUUU lower than 400 nM or not?
Response given: TRUE

Challenge: hey, is Kd for Ic_S4_P4E.1_K4.1_C4.1_H4.1_A4.1_[T5C]_[A6G]_[T7C]_F4.1_[T8A]_[A9G]_T4.1 (ssRNA) RNA: UUUGACAACUGAUCGUUCUUUCUUGUACGCAGUUCUUUCUCGAUCAGUUGUCUUU lower than 400 nM or not?
Response given: FALSE

Challenge: hey, is Kd for UCUCUUUUUUGUAUAUUAGUUCUCUU (ssRNA) [Id_iii_S1_P4E.5_K4.1_C4.3_[C-2T]_H4.1_A4.1_F4.1_T4.2] lower than 400 nM or not?
Response given: TRUE

Challenge: hey, is Kd for UCUCUUCCUACACUUAUUAUAUCUCUU (ssRNA) [Id_iii_S1_P5E.7_K5.3_C5.3_[T-3C]_H5.3_A5.1_F5.1_T5.2] lower than 400 nM or not?
Response given: FALSE

Challenge: hey, is Kd for Ic_S4_P3E.1_K3.1_C3.1_H3.1_A3.1_[T5C]_[A6T]_F3.1_[T7G]_[A8C]_T3.1 (ssRNA) RNA: UUUGACAACUGAUCGUUCUUUCUUGUACUGCUUCUUUCUCGAUCAGUUGUCUUU lower than 400 nM or not?
Response given: FALSE

Challenge: hey, is Kd for Ic_S2_P5E.1_K5.1_C5.1_H5.1_A5.1_[T5G]_[T6C]_[A7C]_F5.1_[T8C]_[T9A]_[A10T]_T5.1 (ssRNA) RNA: UUUGAUUAAUAUGAUAUCGUUCUUUCUUGUAGCCCAUUUCUUUCUCGAUAUCAUAUUAAUCUUU lower than 400 nM or not?
Response given: FALSE

Recorded values, source paper PMC9352680.
